# Ki against 5-hydroxytryptamine receptor 6 (Homo sapiens, UniProt P50406), merged from multiple literature sources
# Sequence (P50406 whole entry): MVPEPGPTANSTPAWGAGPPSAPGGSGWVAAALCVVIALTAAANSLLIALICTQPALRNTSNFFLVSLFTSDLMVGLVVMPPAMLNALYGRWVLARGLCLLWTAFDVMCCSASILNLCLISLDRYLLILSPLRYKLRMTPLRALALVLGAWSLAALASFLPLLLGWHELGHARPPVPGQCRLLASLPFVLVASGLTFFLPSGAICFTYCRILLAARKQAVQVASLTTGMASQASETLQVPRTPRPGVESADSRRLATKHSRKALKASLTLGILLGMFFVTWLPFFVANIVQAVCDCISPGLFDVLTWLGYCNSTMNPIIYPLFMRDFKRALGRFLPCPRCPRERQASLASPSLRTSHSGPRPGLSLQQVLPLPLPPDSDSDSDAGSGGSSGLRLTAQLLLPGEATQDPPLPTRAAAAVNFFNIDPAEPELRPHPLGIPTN
Report only the number, with the unit nM understood.

smiles string | Ki / nM
Cn1c(=O)c2c(ncn2CCCCCN2CCc3ccccc3C2)n(C)c1=O | 9140

State measured Ki of the molecule CN1CCN(c2cn(S(=O)(=O)c3ccccc3)c3ccccc23)CC1 with 5-hydroxytryptamine receptor 6 (Homo sapiens, UniProt P50406).
15.9

State measured Ki of the molecule O=S(=O)(c1cccc(Cl)c1)n1cc(C2=CCCNC2)c2ccccc21 with 5-hydroxytryptamine receptor 6 (Homo sapiens, UniProt P50406).
14

State measured Ki of the molecule Fc1ccc(-c2n[nH]c3c2CCNCC3)cc1 with 5-hydroxytryptamine receptor 6 (Homo sapiens, UniProt P50406).
416
